# test-description: Cytotoxicity against human Muller cells incubated for 72 hrs by MTT assay
# Type: toxicity, cell-based, Muller cell
endpoint-name: IC50 at 72 h

Kindly note the recorded IC50 at 72 h for O=C(COc1ccc(-c2cccc(Cl)c2)cc1)N[C@@H](Cc1ccc(OCc2ccccc2)cc1)C(=O)O , which is > 30 µM

* * *

# system: Lysophosphatidic acid receptor 4 (Homo sapiens)
# Sequence (Q99677 whole entry): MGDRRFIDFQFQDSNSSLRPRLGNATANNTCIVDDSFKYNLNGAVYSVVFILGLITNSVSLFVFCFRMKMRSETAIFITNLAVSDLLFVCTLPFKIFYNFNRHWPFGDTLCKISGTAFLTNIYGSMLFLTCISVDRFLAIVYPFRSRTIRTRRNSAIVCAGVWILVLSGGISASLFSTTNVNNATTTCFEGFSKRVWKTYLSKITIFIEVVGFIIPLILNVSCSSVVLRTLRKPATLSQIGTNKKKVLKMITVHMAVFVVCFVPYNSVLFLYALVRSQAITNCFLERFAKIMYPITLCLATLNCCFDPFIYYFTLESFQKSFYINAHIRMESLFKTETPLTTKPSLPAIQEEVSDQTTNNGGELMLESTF
# test-description: Antagonist activity at LPAR4 (unknown origin)
# Format: functional
pEC50: −log10 of the molar value.
endpoint-name: pEC50

Measured pEC50 for this entry O=C(COc1ccc(-c2cccc(Cl)c2)cc1)N[C@@H](Cc1ccc(OCc2ccccc2)cc1)C(=O)O on Lysophosphatidic acid receptor 4 (Homo sapiens): < 5.00

* * *

# test-description: Cytotoxicity against human HUVEC cells incubated for 72 hrs by MTT assay
# Format: toxicity, cell-based
endpoint-name: IC50 at 72 h

Kindly note the recorded IC50 at 72 h for O=C(COc1ccc(-c2cccc(Cl)c2)cc1)N[C@@H](Cc1ccc(OCc2ccccc2)cc1)C(=O)O , which is > 30 µM
